Reported log10 of GI50 by item:
# System: NCI-H1048 cells
# Test Name: MTT proliferation assay, NCI-H1048;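 also: Dose-response in 96-well plates over 8 or 10 concentration points, with exposure spanning 3-4 cell doublings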
# Format: cell-based
# Measurement Context: 5 days compound exposure, 1:3 serial dilution starting at 10 μM
*1 amine or outer side, *2 acyl side, *3 side chain or, on linkers, in order; H or OH if unused. Where a SMILES comes first, the peptide text is derived from it. Bridges are numbered along the chain shown (N, C = ends). [ ]: non-standard residue; d: D form. The star is where a group is joined. X127 = CN([C@@H](Cc1cc(F)ccc1-c1cnn(S(=O)(=O)C2CC2)c1)C(=O)[*:2])[*:1]; X197 = CN([C@@H](Cc1cc(Cl)ccc1-c1ccc(=O)[nH]c1)C(=O)[*:2])[*:1]; NMehhhLys(Me) = CN([C@@H](CCCCCCCN(C)[*:3])C(=O)[*:2])[*:1]; X15 = CN([C@@H](Cc1cc(Cl)ccc1-c1cnn2c1CCC2)C(=O)[*:2])[*:1]; X112 = CN([C@@H](Cc1cc(F)ccc1-c1cnn(C)c1)C(=O)[*:2])[*:1]; X207 = CN([C@@H](Cc1cc(F)ccc1-c1cn(C)cn1)C(=O)[*:2])[*:1]; NMe(hhhLys) = CN([C@@H](CCCCCCCN[*:3])C(=O)[*:2])[*:1]; X94 = CN([C@@H](Cc1cc(F)ccc1C1CC1)C(=O)[*:2])[*:1]; cBuCO(3,3-F2-1-CF3) = O=C(C1(C(F)(F)F)CC(F)(F)C1)*; Pro(trans-4-F) = O=C(O)[C@@H]1C[C@@H](F)CN1; Gly(cPr) = N[C@H](C(=O)O)C1CC1
For clarity, the numbers are log10 values of GI50 expressed in nM.

Recorded results for 5 molecules are shown here.
Molecule	Metric Name	Observed Result
CC(C)C[C@@H]1NC(=O)[C@@H](N(C)C(=O)[C@@H](NC(=O)[C@@H]2C[C@@H](F)CN2C(=O)C2(C(F)(F)F)CC(F)(F)C2)C2CC2)CC=CCCCCNC(=O)[C@H](Cc2cc(Cl)ccc2C2=CC[C@H](O)CC2)N(C)C1=O [Example 24]	log10 of GI50	1.95
CC(C)C[C@@H]1NC(=O)[C@@H](NC(=O)CNC(=O)[C@@H]2C[C@@H](F)CN2C(=O)C2(C(F)(F)F)CC2)CC=CCCCCNC(=O)[C@H](Cc2cc(Cl)ccc2Cl)N(C)C1=O [Example 3]	log10 of GI50	2.66
CC(C)C[C@@H]1NC(=O)[C@@H](N(C)C(=O)[C@@H](NC(=O)[C@@H]2C[C@@H](F)CN2C(=O)C2(C(F)(F)F)CC(F)(F)C2)C2CC2)CCCCCCCN(C)C(=O)[C@H](Cc2cc(F)ccc2C2CC2)N(C)C1=O [Example 121] ({cBuCO(3,3-F2-1-CF3)}-[Pro(trans-4-F)][Gly(cPr)][NMehhhLys(Me)]L[X94]; lactam 3-C)	log10 of GI50	1.60
CC(C)C[C@@H]1NC(=O)[C@@H](N(C)C(=O)[C@@H](NC(=O)[C@@H]2C[C@@H](F)CN2C(=O)C2(C(F)(F)F)CC(F)(F)C2)C2CC2)CCCCCCCNC(=O)[C@H](Cc2cc(F)ccc2-c2cnn(S(=O)(=O)C3CC3)c2)N(C)C1=O [Example 281] ({cBuCO(3,3-F2-1-CF3)}-[Pro(trans-4-F)][Gly(cPr)][NMe(hhhLys)]L[X127]; lactam 3-C)	log10 of GI50	1.00
CC(C)C[C@@H]1NC(=O)[C@@H](N(C)C(=O)[C@@H](NC(=O)[C@@H]2C[C@@H](F)CN2C(=O)C2(C(F)(F)F)CC(F)(F)C2)C2CC2)CCCCCCCNC(=O)[C@H](Cc2cc(F)ccc2-c2cnn(C)c2)N(C)C1=O [Example 215] ({cBuCO(3,3-F2-1-CF3)}-[Pro(trans-4-F)][Gly(cPr)][NMe(hhhLys)]L[X112]; lactam 3-C)	log10 of GI50	1.00

Input CC(C)C[C@@H]1NC(=O)[C@@H](N(C)C(=O)[C@@H](NC(=O)[C@@H]2C[C@@H](F)CN2C(=O)C2(C(F)(F)F)CC(F)(F)C2)C2CC2)CCCCCCCN(C)C(=O)[C@H](Cc2cc(F)ccc2-c2cn(C)cn2)N(C)C1=O [Example 164] ({cBuCO(3,3-F2-1-CF3)}-[Pro(trans-4-F)][Gly(cPr)][NMehhhLys(Me)]L[X207]; lactam 3-C) . Output log10 of GI50: 1.48

Input CC(C)C[C@@H]1NC(=O)[C@@H](N(C)C(=O)[C@@H](NC(=O)[C@@H]2C[C@@H](F)CN2C(=O)C2(C(F)(F)F)CC(F)(F)C2)C2CC2)CCCCCCCN(C)C(=O)[C@H](Cc2cc(Cl)ccc2-c2ccc(=O)[nH]c2)N(C)C1=O [Example 180] ({cBuCO(3,3-F2-1-CF3)}-[Pro(trans-4-F)][Gly(cPr)][NMehhhLys(Me)]L[X197]; lactam 3-C) . Output log10 of GI50: 2.86

Input CC(C)C[C@@H]1NC(=O)[C@@H](N(C)C(=O)[C@@H](NC(=O)[C@@H]2C[C@@H](F)CN2C(=O)C2(C(F)(F)F)CC(F)(F)C2)C2CC2)CCCCCCCN(C)C(=O)[C@H](Cc2cc(Cl)ccc2-c2cnn3c2CCC3)N(C)C1=O [Example 190] ({cBuCO(3,3-F2-1-CF3)}-[Pro(trans-4-F)][Gly(cPr)][NMehhhLys(Me)]L[X15]; lactam 3-C) . Output log10 of GI50: 1.00
